System under test: human A934T SLACK (Homo sapiens, UniProt Q5JUK3, A915T)
Sequence (Q5JUK3 1-1235 isoform Q5JUK3-3 A934T): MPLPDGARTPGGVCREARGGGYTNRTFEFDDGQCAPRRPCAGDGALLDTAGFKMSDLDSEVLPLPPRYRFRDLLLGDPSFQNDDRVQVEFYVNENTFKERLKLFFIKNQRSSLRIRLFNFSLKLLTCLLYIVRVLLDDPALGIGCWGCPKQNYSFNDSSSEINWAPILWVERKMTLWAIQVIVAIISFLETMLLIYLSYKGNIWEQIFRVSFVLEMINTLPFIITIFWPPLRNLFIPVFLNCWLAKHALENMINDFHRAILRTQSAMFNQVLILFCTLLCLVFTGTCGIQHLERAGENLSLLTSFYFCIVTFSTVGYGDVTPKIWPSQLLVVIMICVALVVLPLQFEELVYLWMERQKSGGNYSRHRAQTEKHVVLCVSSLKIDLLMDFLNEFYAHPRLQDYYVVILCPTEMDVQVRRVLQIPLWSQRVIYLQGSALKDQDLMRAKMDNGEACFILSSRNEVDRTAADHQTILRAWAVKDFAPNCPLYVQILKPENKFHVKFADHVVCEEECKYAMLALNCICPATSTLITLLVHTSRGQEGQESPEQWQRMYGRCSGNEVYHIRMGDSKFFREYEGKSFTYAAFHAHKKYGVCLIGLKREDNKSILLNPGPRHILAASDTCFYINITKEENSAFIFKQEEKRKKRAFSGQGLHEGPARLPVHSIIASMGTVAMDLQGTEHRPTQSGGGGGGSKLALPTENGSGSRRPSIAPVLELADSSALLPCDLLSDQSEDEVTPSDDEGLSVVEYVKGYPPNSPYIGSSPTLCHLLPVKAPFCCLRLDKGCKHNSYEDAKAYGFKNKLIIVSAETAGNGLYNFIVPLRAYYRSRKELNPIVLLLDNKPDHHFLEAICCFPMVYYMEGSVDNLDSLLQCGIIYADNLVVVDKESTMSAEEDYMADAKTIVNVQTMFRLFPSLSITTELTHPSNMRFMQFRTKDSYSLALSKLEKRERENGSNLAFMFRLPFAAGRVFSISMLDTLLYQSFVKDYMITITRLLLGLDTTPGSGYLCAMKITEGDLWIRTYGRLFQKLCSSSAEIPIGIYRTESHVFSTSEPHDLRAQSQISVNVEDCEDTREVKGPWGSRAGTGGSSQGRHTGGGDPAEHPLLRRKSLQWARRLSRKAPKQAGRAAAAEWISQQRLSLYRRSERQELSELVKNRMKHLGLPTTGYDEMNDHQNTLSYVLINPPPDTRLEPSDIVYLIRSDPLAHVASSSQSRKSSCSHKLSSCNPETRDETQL
Test name: Whole-cell APC in CHO cells stably expressing human A934T SLACK
Cond: APC, CHO cells
pIC50: −log10 of the molar value.
pIC50 by entry:
Measure: pIC50

[
  {
    "Sample smiles": "CN(Cc1cccc(F)c1)c1nc2c(c(=O)n(Cc3ccccc3)c(=O)n2C)n1C",
    "Measure": "pIC50",
    "Recorded number": 6.09
  },
  {
    "Sample smiles": "CCCCN(Cc1cccc(F)c1)c1nc2c(c(=O)n(Cc3cccc(OC)c3)c(=O)n2C)n1C",
    "Measure": "pIC50",
    "Recorded number": 6.46
  },
  {
    "Sample smiles": "COc1cccc(Cn2c(=O)c3c(nc(N(Cc4cccc(F)c4)CC4CC4)n3C)n(C)c2=O)c1",
    "Measure": "pIC50",
    "Recorded number": 6.00
  },
  {
    "Sample smiles": "CCCCN(Cc1ccc(F)cc1)c1nc2c(c(=O)n(Cc3cccc(OC)c3)c(=O)n2C)n1C",
    "Measure": "pIC50",
    "Recorded number": 6.23
  },
  {
    "Sample smiles": "COc1cccc(Cn2c(=O)c3c(nc(N(C)Cc4ccccc4)n3C)n(C)c2=O)c1",
    "Measure": "pIC50",
    "Recorded number": 6.11
  },
  {
    "Sample smiles": "COc1cccc(Cn2c(=O)c3c(nc(N(Cc4ccc(F)cc4)CC4CC4)n3C)n(C)c2=O)c1",
    "Measure": "pIC50",
    "Recorded number": 5.92
  }
]

###

System under test: Maxi-K α1/β3 (Homo sapiens, UniProt Q12791)
Construct: expressed in transfected cells; host or cells: HEK293
Sequence (Q12791 whole entry): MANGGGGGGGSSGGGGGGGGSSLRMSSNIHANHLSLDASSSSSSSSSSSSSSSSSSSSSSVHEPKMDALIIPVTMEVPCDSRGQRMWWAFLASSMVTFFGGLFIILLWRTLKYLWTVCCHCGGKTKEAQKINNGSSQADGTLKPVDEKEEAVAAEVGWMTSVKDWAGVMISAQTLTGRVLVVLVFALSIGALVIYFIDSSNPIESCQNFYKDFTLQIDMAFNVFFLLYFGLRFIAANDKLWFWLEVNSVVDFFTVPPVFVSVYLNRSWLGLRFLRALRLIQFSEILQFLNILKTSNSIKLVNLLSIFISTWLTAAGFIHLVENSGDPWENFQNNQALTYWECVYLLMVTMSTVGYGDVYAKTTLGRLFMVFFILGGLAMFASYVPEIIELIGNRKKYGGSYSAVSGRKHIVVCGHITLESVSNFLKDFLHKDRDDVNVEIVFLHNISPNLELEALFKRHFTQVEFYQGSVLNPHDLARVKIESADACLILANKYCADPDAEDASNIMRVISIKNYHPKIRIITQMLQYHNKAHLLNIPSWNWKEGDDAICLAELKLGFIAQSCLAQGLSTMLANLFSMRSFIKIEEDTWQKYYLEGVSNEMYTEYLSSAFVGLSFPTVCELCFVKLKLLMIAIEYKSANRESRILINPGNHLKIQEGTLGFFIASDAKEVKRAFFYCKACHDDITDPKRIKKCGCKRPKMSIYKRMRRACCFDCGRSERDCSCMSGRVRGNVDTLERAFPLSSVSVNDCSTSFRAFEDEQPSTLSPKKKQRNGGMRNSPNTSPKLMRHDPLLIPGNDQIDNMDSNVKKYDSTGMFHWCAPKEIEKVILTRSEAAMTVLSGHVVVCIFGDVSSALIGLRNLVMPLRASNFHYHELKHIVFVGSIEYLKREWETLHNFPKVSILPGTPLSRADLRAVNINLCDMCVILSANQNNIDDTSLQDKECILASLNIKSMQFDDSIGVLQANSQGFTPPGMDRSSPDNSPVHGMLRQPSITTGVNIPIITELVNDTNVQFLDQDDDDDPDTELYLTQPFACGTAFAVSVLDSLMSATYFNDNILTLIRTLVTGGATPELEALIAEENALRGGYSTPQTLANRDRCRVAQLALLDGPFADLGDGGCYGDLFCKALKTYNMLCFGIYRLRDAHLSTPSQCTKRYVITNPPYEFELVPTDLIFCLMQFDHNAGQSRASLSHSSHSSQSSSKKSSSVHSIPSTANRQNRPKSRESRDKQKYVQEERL
Sequence (Q9NPA1 whole entry partner): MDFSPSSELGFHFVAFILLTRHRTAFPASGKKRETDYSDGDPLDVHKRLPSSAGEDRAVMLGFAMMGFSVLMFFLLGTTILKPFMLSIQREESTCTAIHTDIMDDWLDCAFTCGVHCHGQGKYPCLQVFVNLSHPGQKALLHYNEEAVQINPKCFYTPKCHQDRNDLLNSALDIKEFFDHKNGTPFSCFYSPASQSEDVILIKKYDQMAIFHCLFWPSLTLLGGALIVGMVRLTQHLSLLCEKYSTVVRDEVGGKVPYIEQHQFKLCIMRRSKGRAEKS
Test name: Tl+-flux selectivity panel in HEK-293 cells: Maxi-K α1/β3
Assay type: cell-based
Cond: HEK293, 10 µM test compound, relative to control paxilline, read-out: Percent Inhibition ± SEM
inhibition at 10 µM by entry:

[
  {
    "Sample smiles": "CN(Cc1cccc(F)c1)c1nc2c(c(=O)n(Cc3ccccc3)c(=O)n2C)n1C",
    "Result unit": "%",
    "inhibition at 10 µM": 63
  },
  {
    "Sample smiles": "COc1cccc(Cn2c(=O)c3c(nc(N(C)Cc4ccccc4)n3C)n(C)c2=O)c1",
    "Result unit": "%",
    "inhibition at 10 µM": 79
  },
  {
    "Sample smiles": "Cn1c(N(Cc2ccccc2)CC2CC2)nc2c1c(=O)n(Cc1ccccc1)c(=O)n2C",
    "Result unit": "%",
    "inhibition at 10 µM": 17
  },
  {
    "Sample smiles": "CCCCN(Cc1ccccc1)c1nc2c(c(=O)n(Cc3ccccc3)c(=O)n2C)n1C",
    "Result unit": "%",
    "inhibition at 10 µM": 34
  }
]

###

System under test: WT hSLACK (Homo sapiens)
Construct: host or cells: CHO-K1
Test name: Whole-cell automated patch-clamp (APC) in CHO cells stably expressing WT hSLACK
Format: cell-based
Cond: whole-cell APC, CHO cells stably expressing WT hSLACK, averages n ≥ 3; read-out: SLACK IC50
Measure: IC50

[
  {
    "Sample smiles": "CN(Cc1ccc(F)cc1)c1nc2c(c(=O)n(Cc3ccccc3)c(=O)n2C)n1C",
    "System under test": "WT hSLACK (Homo sapiens)",
    "Result": "1.6 µM"
  },
  {
    "Sample smiles": "CN(Cc1cccc(Cl)c1)c1nc2c(c(=O)n(Cc3ccccc3)c(=O)n2C)n1C",
    "System under test": "WT hSLACK (Homo sapiens)",
    "Result": "1.7 µM"
  },
  {
    "Sample smiles": "COc1ccc(Cn2c(=O)c3c(nc(N(C)Cc4ccccc4)n3C)n(C)c2=O)cc1",
    "System under test": "WT hSLACK (Homo sapiens)",
    "Result": "> 10 µM"
  },
  {
    "Sample smiles": "CCCn1c(N(C)Cc2ccccc2)nc2c1c(=O)n(Cc1ccccc1)c(=O)n2C",
    "System under test": "WT hSLACK (Homo sapiens)",
    "Result": "> 10 µM"
  },
  {
    "Sample smiles": "COc1cccc(Cn2c(=O)c3c(nc(N(C)Cc4ccccc4)n3C)n(C)c2=O)c1",
    "System under test": "WT hSLACK (Homo sapiens)",
    "Result": "0.8 µM"
  },
  {
    "Sample smiles": "CN(Cc1ccc(Cl)cc1)c1nc2c(c(=O)n(Cc3ccccc3)c(=O)n2C)n1C",
    "System under test": "WT hSLACK (Homo sapiens)",
    "Result": "2.3 µM"
  },
  {
    "Sample smiles": "Cn1c(N(Cc2ccccc2)CC2CC2)nc2c1c(=O)n(Cc1ccccc1)c(=O)n2C",
    "System under test": "WT hSLACK (Homo sapiens)",
    "Result": "0.98 µM"
  },
  {
    "Sample smiles": "Cc1ccc(CN(C)c2nc3c(c(=O)n(Cc4ccccc4)c(=O)n3C)n2C)cc1",
    "System under test": "WT hSLACK (Homo sapiens)",
    "Result": "1.8 µM"
  }
]

###

System under test: WT hSLACK (Homo sapiens, UniProt Q5JUK3)
Construct: host or cells: CHO-K1
Test name: Whole-cell automated patch-clamp (APC) in CHO cells stably expressing WT hSLACK
Format: cell-based
Cond: maximum inhibition at 30 µM test compound standardized to VU0606170 (set at 100%); WT hSLACK

[
  {
    "Sample smiles": "Cn1c(N2CCc3ccccc3C2)nc2c1c(=O)n(Cc1ccccc1)c(=O)n2C",
    "Result unit": "%",
    "SLACK Imax": 100
  },
  {
    "Sample smiles": "CN(Cc1ccc(Cl)cc1)c1nc2c(c(=O)n(Cc3ccccc3)c(=O)n2C)n1C",
    "Result unit": "%",
    "SLACK Imax": 100
  },
  {
    "Sample smiles": "Cc1ccc(CN(C)c2nc3c(c(=O)n(Cc4ccccc4)c(=O)n3C)n2C)cc1",
    "Result unit": "%",
    "SLACK Imax": 100
  },
  {
    "Sample smiles": "Cc1ccc(Cn2c(=O)c3c(nc(N(C)Cc4ccccc4)n3C)n(C)c2=O)cc1",
    "Result unit": "%",
    "SLACK Imax": 102
  },
  {
    "Sample smiles": "COc1ccc(CN(C)c2nc3c(c(=O)n(Cc4ccccc4)c(=O)n3C)n2C)cc1",
    "Result unit": "%",
    "SLACK Imax": 100
  },
  {
    "Sample smiles": "CN(Cc1ccccc1)c1nc2c(c(=O)n(Cc3ccccc3)c(=O)n2C)n1CC1CC1",
    "Result unit": "%",
    "SLACK Imax": 55
  },
  {
    "Sample smiles": "CN(Cc1ccccc1)c1nc2c(c(=O)n(Cc3cccc(F)c3)c(=O)n2C)n1C",
    "Result unit": "%",
    "SLACK Imax": 100
  },
  {
    "Sample smiles": "CN(Cc1ccccc1C(F)(F)F)c1nc2c(c(=O)n(Cc3ccccc3)c(=O)n2C)n1C",
    "Result unit": "%",
    "SLACK Imax": 100
  }
]

Cited source: paper PMC11173529
